# procedureDetails: yeast display, Sf9 membrane polyspecificity reagent, FACS + sequencing; frameworks hold sequencing errors
measuredQuantity: polyreactivity (PSR sort gate)

QVQLVESGGGLVQAGGSLRLSCAASGGIFGYYTMGWYRQAPGKERELVAVITRSGGSTYYADSVKGRFTISRDNAKNTVYLQMNSLKPEDTAVYYCASGWRGGRYRYFAYDYWGQGTQVTVSS	high polyreactivity
QVQLVESGGGLVQAGGSLRLSCAASGSIFSTYAMGWYRQAPGKERELVAAIRTWSGGRTYYADSVKGRFTISRDNAKNTVYLQMNSLKPEDTAVYYCAAQFSRYRDYGLNYYYWGQGTQVTVSS	high polyreactivity

* * *

# procedureDetails: yeast display, Sf9 membrane polyspecificity reagent, FACS + sequencing; frameworks hold sequencing errors
measuredQuantity: polyreactivity (PSR sort gate)

QVQLVESGGGLVQAGGSLRLSCAASGITFDKYAMGWNRQAPGKERELDAAISGSDGSTYYADSVKGRFTISRDNAKNTVYLQMNILKPEDTAVYYCAAESEYAGTYEYDYWGQGTQVTVSS	low polyreactivity
QVQLVESGVGLVQAGGSLRLSSAASGRTFPSNNMGWYRQAPGKERELVAAISKNGGSTYYADSVKGRFTISRDNAMNTVYLQMNRLKPEDTAVYYWAATGVSSKRLASQRKLDYWGQGSQVTVSS	high polyreactivity
QVQLVESGGGLVQAGGSLRLSCAASGRTFGYNAMGWYRQAAGKERELVAAISSSGGSTYYADSVKGRFTISRDNAKNTVYLQMNSLKPEDTAVYYCATQGYSWAHGSDYWGQGTQVTVSS	low polyreactivity
QVQIVESGGGLVQAGGSLRLSCAASGIIFRYYAMGWYRQAPGKERELVAAISSSGVSTYYADSVKGRFTISRDYAKNTVYLQMNSLKPEDTAVYYCAAVTTWRIDYWGQGTQVNVSS	high polyreactivity

// next item, polyreactivity (PSR sort gate) requested
## Task Identify the reported polyreactivity (PSR sort gate) for the following entry. QVQLVESGGGLVQAGGSLRLSCAASGFTFNYYAMGWYRQAPGKERELVAAISGRGGSTYYADSVKGRFTISRDNAKNTVYLQMNSLKPEDTAVYYCAADYWYDYYSTEYDYWGQGTQVTVSS
## Result low polyreactivity

* * *

# procedureDetails: yeast display, Sf9 membrane polyspecificity reagent, FACS + sequencing; frameworks hold sequencing errors
measuredQuantity: polyreactivity (PSR sort gate)

The examples below pair each entry with its known result.
QVQLVESGGGLVQAGGSLRLSCAASGNTFGFYAMGWYRQAPGKERELVAGITSGDSTYYADSVKGRFTISRDNAKNTVYLQMNSLKPEDTAVYYCATAPYVTSRRYGPYEYWGQGTQGTVSS	low polyreactivity
QVQLVESGGGLVQAGGSLRLSCAAYGRTFASYALGWYRQAPGKEREFVAVISVNGGNTYYADSVKGRFTISRDNAKNTVYLQMNSLKPEDTAVYYCARFDGWYQGYYPLYEFDYWGQGTQVTVSS	high polyreactivity
QVQLVESGGGLVQAGGSLRLSCAASGRTFYFYAMGWYRQAPGKERELVAAITSRVGRTYYADSVKGRFTISRDTAKNTVYLQMNSLKPEDTAVYDCAAEGVYRMGYWGQGTQVTVSS	high polyreactivity
QVQLVESGGGLVQAGGILRLSCAASGSTFVPNTMAWYRQAPGKERELVAAITYSGGSTYYADSVKGRFTISRDNAKNTVYLQMNSLKPEDTAVYYCAAEGTTWYYDMDYWGQGTQVTVSS	low polyreactivity
QVQLVESGGGLVQAGGSLRLSCAASGSTFVVNAMGWYRQAPGKERELVAAITLSTGSTYYADSVKGRFTISRDNAKNTVYLQMNSLKPEDTAVYYCNTEIYVDIISDYGYWGQGTEVTVSS	low polyreactivity

## Task Using known records, supply polyreactivity (PSR sort gate) for QVQLVESGGGLVQAGGSLRLSCAASGNIFYAYDMGWYRQAPGKERELVAAITNGDSTDYADSVKGRFTISRDNAKNTVYLQMNSLKPEDTAVYYCNADYLPEPWALGGSQYDYWGQGTQVTVSS
## Result low polyreactivity

## Task Specify polyreactivity (PSR sort gate) for QVQLVESGGGLVHAGGSLRLSCAASGRTFWAYAMGWYRQAPGKERELVAAISASRGSTYYADSVKGRFTISRDTAKNTVYLEMNSLTAEDTAVYYCRLVSNGRLYDYWGQGTQATVSS and stop.
## Result low polyreactivity

## Task Provide only the value of recorded polyreactivity (PSR sort gate) for QVQHVESGGGLVQAGGSLRLSCAASGSTFWRYAMGWYRQAPGKERELVAAISTSGGSTRYADSVKGRFTISRDNAKNTVYFQMKSLKPEDTEVYYCADRSVSSTSYGYWGQGTQVTVSS
## Result high polyreactivity

## Task Identify the reported polyreactivity (PSR sort gate) for the following entry. QVQLVESGVGLVQAGGSLRISCAASGRILGYYAMGWYRQAPGKEREMVAGISYSAGRTYYADSVKGRFTISRDNAKNTVYLQMNSLKPEDTAVYYCAKALVRSGSTRGTTGYYYWGQGTQVTVSS
## Result high polyreactivity

## Task Indicate its recorded polyreactivity (PSR sort gate); the sequence in question is QVQLVESGGGLVKAGGSLRLSCAASGSIFAFYAMGWYRPAPGKERELVAAINSGGGRTYYEDSVKGRFTISRDNAKYTVYLQMNSLKPEDTAVYYCAARTIHGSNRSYYWGQGTQVTVSS
## Result high polyreactivity

## Task Tell us which polyreactivity (PSR sort gate) value is on record for QVQLVESGGGLVQAGGSLRLSCAASGFTFLGYDMGWYRQAPGKERELVATISSGGRTYYADSVKGRFTISRDNAKNTVYLQMNSMKPEDTAVYYFAAPRFRRLDFDFWGQGTQVTVSS
## Result low polyreactivity

* * *

# procedureDetails: yeast display, Sf9 membrane polyspecificity reagent, FACS + sequencing; frameworks hold sequencing errors
measuredQuantity: polyreactivity (PSR sort gate)

QVQLEESGGGIVQAGGSLRLSCAASGSNYASNAMGWYRQAPRKERELVAAINSGDSTNYADSVKGRFTISRDNGKNTVYLQMNSLKTEDTAVYYCSRGLEERYDYWGQGTQVTVSS	low polyreactivity
QVQLVESGGGSVQAGGSLRLSCAASGFTIRTYAMGWYRQAPGKERELVAAITSSGSSTYYAYSVKGRFTISRDNAKNTVYLQMNSLKPEDTAVYYCAADAPRSYRFGYWGQGTQVTVSA	high polyreactivity
QVQLVESGGGLVQAGGSLRVSCAASGYTFVIYAMGWYRQAPGKERELVAAITTIGGRTYYADSVKGRFTISRDNAKNTVYLQMYSLKPEDTAVYYCATAAVTPVWYDYWGQGTQVTVSS	low polyreactivity
QVQLVESGGGLVQAGGSLRLSCPASGFTFVRYAMGWYRQAPGKERELVAAISSSGSSTYYADSVKGRFTISRDNAKYTVYLQMNSLKPEDSAVYYCNARAGRGEDYWGQGTQVTVSS	low polyreactivity
QVQLVESGGGLVQAGGSLRLSCAASGFIIAPNAMGWYRQAPGKDRELVAAISGGGSTYYADSVKGRFTISRDNAKNTVYLQMNSLKPEDTAVYYCAVAGRRGDEYDYWGQGTQVTVSS	low polyreactivity
QVQLVESGGGIVQAGGSLRLICAASGRTFKYYAMGWYRQAPGKERELVAAIRSRTGSTYYADSVKGRFTISRDNAKNTVYLQMNSLKPVDTAVYYCAAQPGSYYGPRWYYDDDYWGQGTQVTVSS	high polyreactivity
QVQLVESGGGLVQEGCSLRLSCAPSGIIFGVNAMGLYRQAPAKERELVAVITWSGGSTYYADSVKGRFTISRDNAKNTVYLQMNSLKPEDTAVYYCNADSSASTIDRQGEYYYLGQGTQVTVSS	low polyreactivity
QVQLVESGGGLVQAGGSLRLSCAASGRIFRANAMGWYRQAPGKERELVAGISYRGGSTYYADSVKGRFTISRDNAKNTVYLQMNSLKPEDTAVYYCAVRSSPELRYHYEYWGQGTQVTVSS	low polyreactivity

## Task Give polyreactivity (PSR sort gate) for the following sequence: QVQLVESGGGLVQAGGSLRLSCAASGIIFASYPMGWYRQAPGKESELVADINVTGGTTYYADTVKGRFTISRDNAKNTVYLQMNSLKPEDTAVYYCAARQSIFYSWTGVEYYYWGQGTQVTVSS
## Result low polyreactivity

## Task Identify measured polyreactivity (PSR sort gate) corresponding to QVQLVESGGGLVQAGGSLRLSCAASGRIFGYYAMEWNRQAPGKERELVATITFGGGSTYYADSVKGRFTISRDKAKNTVYLQMNSLKPEDTAVSFCAAEGVHYDGDYGTGYDYWGQCTQVTVSS
## Result low polyreactivity

## Task Fill in polyreactivity (PSR sort gate) for record QVQLVESGGGLVQAGGSLRLSCAASGRIFWDNAMGWYRQAPGKERELVAAITFSGGSTYYADSVKGRFTISRDNAKNTVYLQMNSLKPEDTAVYYCAKGEWVYWRPWYEYWGQGTQVTVSS
## Result low polyreactivity

Attribution: the nanobody polyreactivity screen of Harvey et al. (2022)
